Recorded values, source patent US20120022121A1.

# System: MRP1 (over-expressed in the cells)
# protocol-notes: Growth inhibition assay (96 h)
# Assay type: cell-based, human
# test-settings: human, HEK293 cells over-expressing MRP1 (HEK293-MRP1); HEK293-MRP1, MRP1 over-expressed, 96 h

# smi, target-desc, IC50 at 96 h (nM)
records = [
    ("CC(=O)O[C@@]12CO[C@@H]1C[C@H](O)[C@@]1(C)C(=O)[C@H](O)C3=C(C)[C@@H](OC(=O)[C@H](O)[C@@H](NC(=O)OC(C)(C)C)c4ccccc4)C[C@@](O)([C@@H](OC(=O)c4ccccc4)[C@H]21)C3(C)C", "MRP1 (over-expressed in the cells)", 31.3),
    ("COc1cc(C(=O)c2cccc(-c3cc4ccccc4[nH]3)c2)cc(OC)c1OC", "MRP1 (over-expressed in the cells)", 30.4),
    ("CC[C@]1(O)C[C@@H]2CN(CCc3c([nH]c4ccccc34)[C@@](C(=O)OC)(c3cc4c(cc3OC)N(C)[C@H]3[C@@](O)(C(=O)OC)[C@H](OC(C)=O)[C@]5(CC)C=CCN6CC[C@]43[C@@H]65)C2)C1", "MRP1 (over-expressed in the cells)", 24.3),
]
